# test.target: Voltage-gated inwardly rectifying potassium channel KCNH2 (Homo sapiens)
# Sequence (Q12809 whole entry): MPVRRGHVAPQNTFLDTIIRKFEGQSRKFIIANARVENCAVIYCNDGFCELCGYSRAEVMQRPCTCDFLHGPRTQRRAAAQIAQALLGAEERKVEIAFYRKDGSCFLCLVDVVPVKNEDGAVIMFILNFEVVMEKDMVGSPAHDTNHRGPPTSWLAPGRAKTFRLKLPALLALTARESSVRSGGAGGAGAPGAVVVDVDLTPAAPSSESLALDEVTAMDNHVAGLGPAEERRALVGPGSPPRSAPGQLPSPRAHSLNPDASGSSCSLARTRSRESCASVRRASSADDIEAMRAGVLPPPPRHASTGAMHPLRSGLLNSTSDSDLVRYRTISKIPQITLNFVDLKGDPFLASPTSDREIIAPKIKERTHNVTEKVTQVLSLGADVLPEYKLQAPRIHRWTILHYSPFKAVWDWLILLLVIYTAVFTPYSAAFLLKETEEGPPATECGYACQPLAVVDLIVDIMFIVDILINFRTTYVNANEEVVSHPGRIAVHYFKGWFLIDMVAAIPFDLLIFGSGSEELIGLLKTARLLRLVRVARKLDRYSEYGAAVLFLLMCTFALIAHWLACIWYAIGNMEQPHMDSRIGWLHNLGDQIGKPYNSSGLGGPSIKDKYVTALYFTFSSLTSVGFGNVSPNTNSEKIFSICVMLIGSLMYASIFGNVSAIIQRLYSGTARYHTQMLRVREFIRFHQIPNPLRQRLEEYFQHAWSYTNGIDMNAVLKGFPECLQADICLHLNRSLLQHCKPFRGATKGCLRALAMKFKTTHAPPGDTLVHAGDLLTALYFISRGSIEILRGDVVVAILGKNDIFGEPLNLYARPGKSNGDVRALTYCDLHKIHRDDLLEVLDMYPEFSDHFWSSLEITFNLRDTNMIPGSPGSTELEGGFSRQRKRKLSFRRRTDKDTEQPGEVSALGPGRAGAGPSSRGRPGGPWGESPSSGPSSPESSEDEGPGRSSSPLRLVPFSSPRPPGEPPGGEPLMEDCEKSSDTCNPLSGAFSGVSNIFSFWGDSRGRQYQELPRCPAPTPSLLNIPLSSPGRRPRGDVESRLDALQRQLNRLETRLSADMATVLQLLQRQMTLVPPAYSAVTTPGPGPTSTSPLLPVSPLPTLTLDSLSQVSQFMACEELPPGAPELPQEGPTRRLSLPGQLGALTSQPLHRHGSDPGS
# assay.remarks: Inhibition of hERG by patch clamp method
# Format: toxicity
Listed next: entries and their corresponding IC50.

// below: answered molecules
| given.smiles | assay.result |
| --- | --- |
| CCOP(=O)(Cn1ccc(NC(=O)c2cc(Oc3ccc(S(C)(=O)=O)nc3)cc(OC(C)C)c2)n1)OCC | > 80 µM |
| CCOP(=O)(Cn1ccc(NC(=O)c2cc(Oc3cnc(S(C)(=O)=O)cn3)cc(OC(C)C)c2)n1)OCC | > 80 µM |
| CCOP(=O)(Cn1ccc(NC(=O)c2cc(Oc3ccc(S(C)(=O)=O)cc3)cc(OC(CF)CF)c2)n1)OCC | 44 µM |
| CCOP(=O)(Cn1ccc(NC(=O)c2cc(Oc3ccc(C(=O)N4CCC4)nn3)cc(OC(C)C)c2)n1)OCC | > 80 µM |
| CCOP(=O)(Cn1ccc(NC(=O)c2cc(Oc3ccc(S(C)(=O)=O)cc3)cc(O[C@@H](C)CO)c2)n1)OCC | > 80 µM |

Challenge: Test system Voltage-gated inwardly rectifying potassium channel KCNH2 (Homo sapiens); read-out IC50; what value for CCOP(=O)(Cn1ccc(NC(=O)c2cc(Oc3ccc(S(C)(=O)=O)cc3)cc(O[C@@H](C)COC)c2)n1)OCC ?
Response given: > 80 µM
